Details: human, in vivo, 40 mg, AUCinf, median (min-max), simvastatin 40 mg alone, plasma
property.name: AUC(0-inf) (ng·h/mL)
Provide the reading as a plain figure in ng·h/mL.

Task: I'd like to know its AUC(0-inf). The compound in question is CCC(C)(C)C(=O)O[C@H]1C[C@@H](C)C=C2C=C[C@H](C)[C@H](CC[C@@H](O)C[C@@H](O)CC(=O)O)[C@H]21 [Simvastatin acid]
Result: 21.2

###

Conditions: human, in vivo, 40 mg, Cmax, mean (SD), simvastatin 40 mg alone, plasma
property.name: Cmax (ng/mL)
Provide the reading as a plain figure in ng/mL.

Task: I'd like to know its Cmax. The compound in question is CCC(C)(C)C(=O)O[C@H]1C[C@@H](C)C=C2C=C[C@H](C)[C@H](CC[C@@H](O)C[C@@H](O)CC(=O)O)[C@H]21 [Simvastatin acid]
Result: 2.12

###

Conditions: human, in vivo, Cmax, median (min-max), simvastatin administered 4 hours after roxadustat, plasma
property.name: Cmax (ng/mL)
Provide the reading as a plain figure in ng/mL.

Task: I'd like to know its Cmax. The compound in question is CCC(C)(C)C(=O)O[C@H]1C[C@@H](C)C=C2C=C[C@H](C)[C@H](CC[C@@H](O)C[C@@H](O)CC(=O)O)[C@H]21
Result: 11.6

###

Details: human, in vivo, Cmax, mean (SD), simvastatin administered 10 hours after roxadustat, plasma
property.name: Cmax (ng/mL)
Provide the reading as a plain figure in ng/mL.

Task: I'd like to know its Cmax. The compound in question is CCC(C)(C)C(=O)O[C@H]1C[C@@H](C)C=C2C=C[C@H](C)[C@H](CC[C@@H](O)C[C@@H](O)CC(=O)O)[C@H]21
Result: 7.13

###

Conditions: human, in vivo, t1/2, mean (SD), simvastatin administered 10 hours after roxadustat, plasma
property.name: half-life (h)
Provide the reading as a plain figure in h.

Task: I'd like to know its half-life. The molecule in question is CCC(C)(C)C(=O)O[C@H]1C[C@@H](C)C=C2C=C[C@H](C)[C@H](CC[C@@H](O)C[C@@H](O)CC(=O)O)[C@H]21
Result: 4.16

###

Assay: clinical
Conditions: human, in vivo, po, tmax, mean (SD), statin alone, single oral dose, plasma
property.name: Tmax (h)
Provide the reading as a plain figure in h.

# compound, Tmax, h
measured = [
    ("CC(C)c1nc(N(C)S(C)(=O)=O)nc(-c2ccc(F)cc2)c1/C=C/[C@@H](O)C[C@@H](O)CC(=O)O [Rosuvastatin]", 3.9),
]

Below: the item to evaluate.
Task: I'd like to know its Tmax. The compound in question is CCC(C)(C)C(=O)O[C@H]1C[C@@H](C)C=C2C=C[C@H](C)[C@H](CC[C@@H](O)C[C@@H](O)CC(=O)O)[C@H]21 [Simvastatin acid]
Result: 5.7

###

Details: human, in vivo, AUCinf, median (min-max), simvastatin administered 2 hours before roxadustat, plasma
property.name: AUC(0-inf)
Include the unit after the number when you answer.

Task: I'd like to know its AUC(0-inf). The molecule in question is CCC(C)(C)C(=O)O[C@H]1C[C@@H](C)C=C2C=C[C@H](C)[C@H](CC[C@@H](O)C[C@@H](O)CC(=O)O)[C@H]21
Result: 41 ng·h/mL
